assay.explanation: Antibacterial activity against five Gram-negative bacteria
Type: functional
condition.summary: read-out: MIC
Mark class 1 only for MIC values smaller than 0.08 µg/mL; exact matches and larger values are class 0.

Lookup: Is MIC of C=Cn1cc(C(=O)O)c(=O)c2cc(F)c(N3CCC(N)C3)c(F)c21 (centres undefined) strictly below 0.08 µg/mL?
Found: class 0

Lookup: Is MIC of NC1CCCN(c2c(F)cc3c(=O)c(C(=O)O)cn(C4CC4)c3c2Cl)C1 (centres undefined) strictly below 0.08 µg/mL?
Found: class 1

Lookup: Is MIC of COc1c(N2CCC(N)C2)c(F)cc2c(=O)c(C(=O)O)cn(C3CC3)c12 (stereo in doubt; 24d) strictly below 0.08 µg/mL?
Found: class 1

Lookup: Is MIC of CCNCC1CCN(c2c(F)cc3c(=O)c(C(=O)O)cn(-c4ccc(F)cc4F)c3c2Cl)C1 (centres undefined) strictly below 0.08 µg/mL?
Found: class 0

Lookup: Is MIC of NC1CCN(c2nc3c(cc2F)c(=O)c(C(=O)O)cn3-c2ccc(F)cc2F)C1 (centres undefined) strictly below 0.08 µg/mL?
Found: class 0

Lookup: Is MIC of CCNCC1CCN(c2c(F)cc3c(=O)c(C(=O)O)cn(C4CC4)c3c2Cl)C1 (stereo in doubt; 26c) strictly below 0.08 µg/mL?
Found: class 0

Lookup: Is MIC of CC1CN(c2nc3c(cc2F)c(=O)c(C(=O)O)cn3C2CC2)CC(C)N1 (centres undefined) strictly below 0.08 µg/mL?
Found: class 0
